# testSystem: CDK1 CCNA2 (human) (UniProt P06493+P20248)
# Sequence (P06493 whole entry, looked up): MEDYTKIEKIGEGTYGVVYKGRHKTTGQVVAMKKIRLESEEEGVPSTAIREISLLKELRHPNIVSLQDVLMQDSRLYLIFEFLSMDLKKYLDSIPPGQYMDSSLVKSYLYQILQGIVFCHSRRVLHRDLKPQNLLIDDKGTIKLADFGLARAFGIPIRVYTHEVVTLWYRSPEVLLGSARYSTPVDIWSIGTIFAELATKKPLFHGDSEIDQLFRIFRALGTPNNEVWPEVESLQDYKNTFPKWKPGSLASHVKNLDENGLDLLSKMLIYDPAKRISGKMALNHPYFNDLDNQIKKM
# Sequence (P20248 whole entry, looked up): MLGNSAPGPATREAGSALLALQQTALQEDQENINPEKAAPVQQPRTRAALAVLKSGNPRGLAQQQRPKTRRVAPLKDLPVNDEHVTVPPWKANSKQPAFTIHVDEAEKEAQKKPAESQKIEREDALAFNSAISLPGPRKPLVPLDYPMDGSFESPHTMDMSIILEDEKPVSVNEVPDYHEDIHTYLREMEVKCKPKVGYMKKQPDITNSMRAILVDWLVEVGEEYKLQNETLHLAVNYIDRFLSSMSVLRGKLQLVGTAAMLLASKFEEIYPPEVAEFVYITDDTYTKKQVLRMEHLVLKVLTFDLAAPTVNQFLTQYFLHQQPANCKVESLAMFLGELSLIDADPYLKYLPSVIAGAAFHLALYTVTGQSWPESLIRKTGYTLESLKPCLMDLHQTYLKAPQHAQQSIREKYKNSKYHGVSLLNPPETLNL
# assayMethodText: radiometric filter-binding kinase assay, Kinase HotSpot
# recordedConditions: compound 0.5 µM; ATP 10 µM
Reported values of residual activity for individual entries
Please reply with the bare figure in % and do not write the unit itself.

# chemicalString, observedValue
rows = [
    ("O=C(Nc1cccc(Nc2nccc(Nc3cccc(C(F)(F)F)c3)n2)c1)C1CC1", 95.9),
    ("CNc1cc2c(Nc3cccc(Br)c3)ncnc2cn1", 86.5),
    ("Cc1ccc(NC2=CC(=O)c3sc(C)nc3C2=O)cc1", 75.9),
    ("Nc1cccc(-c2cc3c(Oc4cccc(O)c4)ncnc3[nH]2)c1", 99.3),
    ("O=C1NC(=O)/C(=C/c2ccc3c(c2)OC(F)(F)O3)S1", 97.2),
]

Would you kindly look at the next entry?
State its residual activity on CDK1 CCNA2 (human) (UniProt P06493+P20248): c1ccc(-c2n[nH]cc2-c2ccnc3ccccc23)nc1
82.7
